The reported numbers originate from PubChem BioAssay (NCI).

Tested on: PC-3 prostate
protocol text: NCI-60 one-dose screen, 48 h (100 = growth as untreated, 0 = no growth, -100 = all killed)
assay context: 10 µM unless noted
Compounds without any hit were thinned out: in the full panel of roughly 83,000, 20% have a hit.
value type: growth (%)

>>> df
                                    molecule  readout_unit  numeric_result
 0            CCN(CC)c1ccc(C(=O)c2ccccc2)cc1             %            97.9
 1  N#CC1=C(/N=C/c2ccccc2)Oc2c(ccc3ccccc23)C1c1ccc([N+](=O)[O-])cc1 (configuration not stated)             %            78.7
 2  Cc1cc2nc3c4ccc(Br)cc4n(CCN(C)C)c3nc2cc1C             %            12.8
 3  COc1cc(/C=C/C(=O)c2nc3cc(F)ccc3nc2C)cc(OC)c1OC             %            68.1
 4  CCCCCC(=O)Oc1ccc(/C(=C(/C)Cc2ccc(OC)cc2)c2ccc(OCCCN(C)C)cc2)cc1             %            86.2
 5  COc1cc(C2=NN(C(C)=O)C(c3cc(OC)c(OC)c(OC)c3)C2)ccc1O (configuration not stated)             %            13.1
 6  Cc1ccc(S(=O)(=O)NNC(=O)/C(=C\c2ccc(Cl)cc2)c2nc3ccccc3s2)cc1             %            90.5
 7  O=C(C1CCC1)N1N=C(c2ccc(-n3ccc(C(F)(F)F)n3)cc2)CC1c1ccc[nH]1 (configuration not stated)             %            76.5
 8  COc1ccc2[nH]c(=O)c(CN3CCN(c4nccc(-c5ccc(Cl)cc5)n4)CC3)cc2c1             %            73.6
 9  Cc1ccc(C(=O)/C(=C\c2ccc([N+](=O)[O-])cc2)S(=O)Cc2ccc(Cl)cc2)cc1 (configuration not stated)             %            6.38
10  COc1cc(C=O)ccc1OC1OC(COC(C)=O)C(OC(C)=O)C(OC(C)=O)C1OC(C)=O (configuration not stated)             %            95.8
11      O=C(CCN1CCCC1)c1ccc([N+](=O)[O-])cc1             %            99.8
12          CCOC(=O)c1cc(C#N)n2ccc3ccccc3c12             %             102
13  O=Cc1ccc(-c2cn3ccnc3c(-c3ccc4ncn(Cc5ccccc5)c4c3)n2)cc1             %              81
14  CNCCOc1nc2c3cnccc3cc(-c3cc(OC)c(OC)c(OC)c3)c2c2ccncc12             %           -13.4
15  O=C1Nc2ccccc2/C1=C\c1c(-c2ccc(F)cc2)nc2ccccn12             %            62.5
16  CC1(C)CC(=O)C2=C(C1)N(c1ccc(F)cc1F)C(N)=C(C#N)C2c1cc(Br)ccc1F (configuration not stated)             %            76.8
